biological target: T1, HLA-DR1 (DRB1*0101) (human); assay: competition ELISA, purified HLA II; tracer biotinylated HA 306-318
T1 chain 1: not shown
T1 chain 2: not shown
pIC50: −log10 of the molar value.
Where pIC50 equals or exceeds 6, the correct label is criterion met; where it does not, the label is criterion not met.

Use these answered entries as a reference point.
[
  {
    "binder": "GREILLGPADGMVSKGWRLLAPITAYAQQTR (modifications not checked) [8N 1007-1037]",
    "labelClass": "criterion met"
  },
  {
    "binder": "GCIITSLTGRDKNQV (modifications not checked) [9N 1041-1055]",
    "labelClass": "criterion met"
  },
  {
    "binder": "WAGWLLSPRGSRPSW (modifications not checked) [3C 93-107]",
    "labelClass": "criterion not met"
  }
]

Next:
*Q* Is reported pIC50 greater than or equal to 6 here: TRGLLGCIITSLTGRDKNQV (modifications not checked) [9N 1036-1055, P26664 1036-1055]
*A* criterion met
